assay: Oral bioavailability in Sprague-Dawley rat at 10 mg/kg, po and 2 mg/kg, iv; assay type: ADME, organism-based; conditions: in vivo
readout: bioavailability (%)

[P] CCOC(=O)c1c(Cl)cccc1-c1ccc([C@@H](C)NC(=O)C2(NC(=O)C(F)(F)F)CC2)c(F)c1
[Q] COC(=O)c1c(F)cccc1-c1ccc([C@@H](C)NC(=O)C2(NC(=O)CC(F)(F)F)CC2)c(F)c1
Hi! Which is lower in terms of bioavailability, the first one P or the second one Q ? Refer to your chosen entry by its label in the reply.
Q

====

test: Oral bioavailability in Sprague-Dawley rat at 10 mg/kg, po and 2 mg/kg, iv; format: ADME, organism-based; conditions: in vivo
readout: bioavailability (%)

These recorded examples may help you get a feel for the data.
{"compound": "C[C@@H](NC(=O)C1(NC(=O)C(F)(F)F)CC1)c1ccc(-c2cccc(Cl)c2-c2nnn(C)n2)cc1F", "data.value": 50}
{"compound": "C[C@@H](NC(=O)C1(NC(=O)C(F)(F)F)CC1)c1ccc(-c2cccc(F)c2C(F)(F)F)cc1F", "data.value": 30}
{"compound": "Cc1noc(-c2c(F)cccc2-c2ccc([C@@H](C)NC(=O)C3(NC(=O)C(F)(F)F)CC3)c(F)c2)n1", "data.value": 27}

[1] COC(=O)c1c(Cl)cccc1-c1ccc([C@@H](C)NC(=O)C2(NC(=O)C(F)(F)F)CC2)c(F)c1 [MK0686]
[2] COC(=O)c1c(F)cccc1-c1ccc([C@@H](C)NC(=O)C2(NC(=O)C(F)(F)F)CC2)c(F)c1
Hi! Which is lower in terms of bioavailability, the first one 1 or the second one 2 ? Refer to your chosen entry by its label in the reply.
2
